Record set: pIC50 | Interstitial collagenase (Homo sapiens, UniProt P03956) | literature, multiple sources.
Reminder that pIC50 means the negative base-10 logarithm of the concentration expressed in mol/L.

CC#CCOc1ccc(S(=O)(=O)N(CC#CCN(CC)CC)C(C(=O)NO)C(C)C)cc1 (stereo not drawn)    6.67
O=C(NO)C1c2[nH]c3ccccc3c2CCN1S(=O)(=O)c1ccc(Oc2ccc(F)cc2)cc1 (racemic)    6.47
CC#CCOc1ccc(S(=O)(=O)N(C)C(C(=O)NO)C(C)(C)SCCCN(CC)CC)cc1 (stereo not drawn)    7.60

What value of measured pIC50 is listed for "CC(C)(C)c1ccc(S(=O)(=O)NCC(=O)NC2=NN=C(c3ccc(Cl)cc3Cl)CS2)cc1" ?
6.37

Quick one: "COc1ccc(C2=NN=C(NC(=O)[C@H](C)NS(=O)(=O)c3ccccc3)SC2)cc1"
6.18

Quick one: "C[C@H](NS(=O)(=O)c1ccccc1)C(=O)NC1=NN=C(c2ccc([N+](=O)[O-])cc2)CS1"
6.53

Quick one: "O=C1C[C@@H](C(=O)NC2=NN=C(c3ccc(Cl)cc3)CS2)NC(=O)N1"
6.25

Quick one: COc1ccc(S(=O)(=O)N(Cc2ccccc2)[C@@H]2CCCC[C@H]2C(=O)NO)cc1 (relative stereo)
6.75
